ASSAYED_TARGET: AGO2 A367P (Homo sapiens, UniProt Q9UKV8 1-859, A367P;S387D;S824A;S828D;S831D;S834A)
Sequence (Q9UKV8 whole entry A367P/S387D/S824A/S828D/S831D/S834A): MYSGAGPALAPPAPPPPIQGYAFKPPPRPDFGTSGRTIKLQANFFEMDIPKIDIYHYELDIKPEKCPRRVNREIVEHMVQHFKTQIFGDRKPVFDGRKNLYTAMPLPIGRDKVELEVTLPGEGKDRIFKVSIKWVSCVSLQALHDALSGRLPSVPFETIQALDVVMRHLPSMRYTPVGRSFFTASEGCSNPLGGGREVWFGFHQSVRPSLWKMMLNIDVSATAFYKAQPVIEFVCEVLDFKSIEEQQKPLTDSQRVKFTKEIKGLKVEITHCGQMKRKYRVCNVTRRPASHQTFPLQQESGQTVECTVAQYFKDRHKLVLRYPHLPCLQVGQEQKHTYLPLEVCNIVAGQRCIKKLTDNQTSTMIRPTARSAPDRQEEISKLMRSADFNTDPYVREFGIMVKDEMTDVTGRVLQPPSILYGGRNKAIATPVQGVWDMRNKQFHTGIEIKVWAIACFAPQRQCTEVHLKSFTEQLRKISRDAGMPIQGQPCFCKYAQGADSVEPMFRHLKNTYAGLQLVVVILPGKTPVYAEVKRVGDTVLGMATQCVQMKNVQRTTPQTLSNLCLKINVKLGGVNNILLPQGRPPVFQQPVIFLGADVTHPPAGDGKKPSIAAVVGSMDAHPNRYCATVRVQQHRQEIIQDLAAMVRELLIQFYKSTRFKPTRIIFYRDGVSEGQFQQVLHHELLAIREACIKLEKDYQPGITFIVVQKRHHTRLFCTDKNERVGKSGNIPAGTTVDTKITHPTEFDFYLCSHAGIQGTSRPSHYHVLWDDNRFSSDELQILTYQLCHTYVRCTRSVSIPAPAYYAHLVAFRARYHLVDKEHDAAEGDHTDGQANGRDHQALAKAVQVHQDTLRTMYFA
ASSAY_EXPLANATION: RNA Bind-n-Seq (nitrocellulose filter binding and sequencing); miR-122 guide loaded in AGO2; 60 min incubation; 30 mM Tris pH 8.0, 100 mM potassium acetate, 2 mM magnesium acetate, 0.5 mM TCEP, 0.005% NP-40, 0.01 mg/ml yeast tRNA; 3 nM AGO2-miR-122, 100 nM RNA library; 60; high values mean tight binding
RECORDED_CONDITIONS: protein: recombinant; tags: His6 (N-terminal, pFastBac HTA)
Would you kindly list binding signal for each of these binders?

Worked set:
BINDER | RESULT
ACACCTTG (ssRNA, constant regions annealed to DNA blockers; guide miR-122 5' phosphate) RNA 1: GAGUUCUACAGUCCGACGAUCCCAACACACCUUGCACCUGGAAUUCUCGGGUGCCAA RNA 2: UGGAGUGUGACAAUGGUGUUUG DNA 1: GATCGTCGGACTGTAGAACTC DNA 2: TTGGCACCCGAGAATTCCA | 0.169 fold enrichment over input
GCACTCCG (ssRNA, constant regions annealed to DNA blockers; guide miR-122 5' phosphate) RNA 1: GAGUUCUACAGUCCGACGAUCCCAACGCACUCCGCACCUGGAAUUCUCGGGUGCCAA RNA 2: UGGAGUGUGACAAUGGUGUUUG DNA 1: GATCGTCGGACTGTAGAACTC DNA 2: TTGGCACCCGAGAATTCCA | 86.8 fold enrichment over input
GCACCTTA (ssRNA, constant regions annealed to DNA blockers; guide miR-122 5' phosphate) RNA 1: GAGUUCUACAGUCCGACGAUCCCAACGCACCUUACACCUGGAAUUCUCGGGUGCCAA RNA 2: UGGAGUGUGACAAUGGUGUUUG DNA 1: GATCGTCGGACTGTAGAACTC DNA 2: TTGGCACCCGAGAATTCCA | 0.307 fold enrichment over input
ATACTTTA (ssRNA, constant regions annealed to DNA blockers; guide miR-122 5' phosphate) RNA 1: GAGUUCUACAGUCCGACGAUCCCAACAUACUUUACACCUGGAAUUCUCGGGUGCCAA RNA 2: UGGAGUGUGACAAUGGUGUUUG DNA 1: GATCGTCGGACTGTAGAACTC DNA 2: TTGGCACCCGAGAATTCCA | 0.174 fold enrichment over input
GTACTCCA (ssRNA, constant regions annealed to DNA blockers; guide miR-122 5' phosphate) RNA 1: GAGUUCUACAGUCCGACGAUCCCAACGUACUCCACACCUGGAAUUCUCGGGUGCCAA RNA 2: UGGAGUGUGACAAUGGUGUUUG DNA 1: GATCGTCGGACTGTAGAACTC DNA 2: TTGGCACCCGAGAATTCCA | 3.12 fold enrichment over input
GTGCTCTA (ssRNA, constant regions annealed to DNA blockers; guide miR-122 5' phosphate) RNA 1: GAGUUCUACAGUCCGACGAUCCCAACGUGCUCUACACCUGGAAUUCUCGGGUGCCAA RNA 2: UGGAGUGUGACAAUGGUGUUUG DNA 1: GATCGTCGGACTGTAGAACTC DNA 2: TTGGCACCCGAGAATTCCA | 0.178 fold enrichment over input

Could you report binding signal for every entry in the following list?
1. GCGTTCCA (ssRNA, constant regions annealed to DNA blockers; guide miR-122 5' phosphate) RNA 1: GAGUUCUACAGUCCGACGAUCCCAACGCGUUCCACACCUGGAAUUCUCGGGUGCCAA RNA 2: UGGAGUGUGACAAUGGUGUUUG DNA 1: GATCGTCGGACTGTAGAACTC DNA 2: TTGGCACCCGAGAATTCCA
2. GCATCTTA (ssRNA, constant regions annealed to DNA blockers; guide miR-122 5' phosphate) RNA 1: GAGUUCUACAGUCCGACGAUCCCAACGCAUCUUACACCUGGAAUUCUCGGGUGCCAA RNA 2: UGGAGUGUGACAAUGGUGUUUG DNA 1: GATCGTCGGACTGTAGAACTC DNA 2: TTGGCACCCGAGAATTCCA
3. GTGCCCCA (ssRNA, constant regions annealed to DNA blockers; guide miR-122 5' phosphate) RNA 1: GAGUUCUACAGUCCGACGAUCCCAACGUGCCCCACACCUGGAAUUCUCGGGUGCCAA RNA 2: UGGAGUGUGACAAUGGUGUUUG DNA 1: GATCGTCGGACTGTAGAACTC DNA 2: TTGGCACCCGAGAATTCCA
4. GCGCTCTA (ssRNA, constant regions annealed to DNA blockers; guide miR-122 5' phosphate) RNA 1: GAGUUCUACAGUCCGACGAUCCCAACGCGCUCUACACCUGGAAUUCUCGGGUGCCAA RNA 2: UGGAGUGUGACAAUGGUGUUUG DNA 1: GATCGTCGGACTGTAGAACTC DNA 2: TTGGCACCCGAGAATTCCA
5. ATGCCCTA (ssRNA, constant regions annealed to DNA blockers; guide miR-122 5' phosphate) RNA 1: GAGUUCUACAGUCCGACGAUCCCAACAUGCCCUACACCUGGAAUUCUCGGGUGCCAA RNA 2: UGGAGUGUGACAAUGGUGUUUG DNA 1: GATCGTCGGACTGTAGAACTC DNA 2: TTGGCACCCGAGAATTCCA
6. GTGTCCTA (ssRNA, constant regions annealed to DNA blockers; guide miR-122 5' phosphate) RNA 1: GAGUUCUACAGUCCGACGAUCCCAACGUGUCCUACACCUGGAAUUCUCGGGUGCCAA RNA 2: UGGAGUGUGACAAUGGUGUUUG DNA 1: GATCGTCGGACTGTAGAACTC DNA 2: TTGGCACCCGAGAATTCCA
7. GTATTTCG (ssRNA, constant regions annealed to DNA blockers; guide miR-122 5' phosphate) RNA 1: GAGUUCUACAGUCCGACGAUCCCAACGUAUUUCGCACCUGGAAUUCUCGGGUGCCAA RNA 2: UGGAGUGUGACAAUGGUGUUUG DNA 1: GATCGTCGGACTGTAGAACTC DNA 2: TTGGCACCCGAGAATTCCA
8. GTGTTTTA (ssRNA, constant regions annealed to DNA blockers; guide miR-122 5' phosphate) RNA 1: GAGUUCUACAGUCCGACGAUCCCAACGUGUUUUACACCUGGAAUUCUCGGGUGCCAA RNA 2: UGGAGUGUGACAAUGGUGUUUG DNA 1: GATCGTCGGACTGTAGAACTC DNA 2: TTGGCACCCGAGAATTCCA

0.187 fold enrichment over input
0.189 fold enrichment over input
0.227 fold enrichment over input
0.19 fold enrichment over input
0.166 fold enrichment over input
0.158 fold enrichment over input
0.127 fold enrichment over input
0.167 fold enrichment over input

Return reported binding signal; argument: ATGTTTTG (ssRNA, constant regions annealed to DNA blockers; guide miR-122 5' phosphate) RNA 1: GAGUUCUACAGUCCGACGAUCCCAACAUGUUUUGCACCUGGAAUUCUCGGGUGCCAA RNA 2: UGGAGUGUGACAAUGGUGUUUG DNA 1: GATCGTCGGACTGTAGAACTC DNA 2: TTGGCACCCGAGAATTCCA
0.134 fold enrichment over input
